We begin with a simple list: items and their reported fold change (FC).
Target: B-cell receptor CD22 (Homo sapiens) (UniProt P20273)
Sequence (P20273 whole entry): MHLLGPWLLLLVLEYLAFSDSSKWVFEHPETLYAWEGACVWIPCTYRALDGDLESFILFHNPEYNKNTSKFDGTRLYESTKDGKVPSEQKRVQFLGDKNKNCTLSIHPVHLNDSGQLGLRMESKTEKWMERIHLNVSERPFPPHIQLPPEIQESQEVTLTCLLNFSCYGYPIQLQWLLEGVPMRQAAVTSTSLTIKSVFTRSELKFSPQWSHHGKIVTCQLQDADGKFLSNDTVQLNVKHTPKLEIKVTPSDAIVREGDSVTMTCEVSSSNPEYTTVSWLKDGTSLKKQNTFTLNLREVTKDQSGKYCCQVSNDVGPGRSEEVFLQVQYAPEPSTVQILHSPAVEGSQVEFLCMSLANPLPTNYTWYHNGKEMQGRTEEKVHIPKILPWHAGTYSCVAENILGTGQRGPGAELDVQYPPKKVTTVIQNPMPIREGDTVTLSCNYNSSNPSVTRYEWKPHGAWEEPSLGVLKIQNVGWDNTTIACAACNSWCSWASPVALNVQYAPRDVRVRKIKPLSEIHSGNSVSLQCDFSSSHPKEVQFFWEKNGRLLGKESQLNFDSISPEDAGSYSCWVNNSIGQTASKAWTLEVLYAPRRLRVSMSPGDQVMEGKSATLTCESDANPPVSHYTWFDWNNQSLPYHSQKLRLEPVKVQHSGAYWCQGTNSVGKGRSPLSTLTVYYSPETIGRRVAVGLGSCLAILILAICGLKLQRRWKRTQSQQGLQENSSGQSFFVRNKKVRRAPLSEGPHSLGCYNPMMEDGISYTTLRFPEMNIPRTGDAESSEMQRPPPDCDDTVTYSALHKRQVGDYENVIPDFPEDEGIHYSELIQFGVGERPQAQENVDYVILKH
Assay: Inhibition of to hFc tagged CD22 (unknown origin) assessed as relative inhibitory potency incubated for 4 hrs by ELISA relative to 1,4-bis-(2-Aza-1-oxo-8-(sodium(5-acetamido-3,5,9-trideoxy-9-(4-phenylbenzamido)-D-glycero-alpha-D-galacto-non-2-ulopyranosyloxyonate))-5-thia-octyl)benzene
Please give only the number in your answer, with no unit.

Reference set, count: 2
smiles.text: CC(=O)N[C@H]1[C@H]([C@H](O)[C@H](O)CNC(=O)c2ccc(-c3ccccc3)cc2)O[C@@](OCCCSCCNCc2ccc(CNCCSCCCO[C@]3(C(=O)O)C[C@H](O)[C@@H](NC(C)=O)[C@H]([C@H](O)[C@H](O)CNC(=O)c4ccc(-c5ccccc5)cc4)O3)cc2)(C(=O)O)C[C@@H]1O
target: B-cell receptor CD22 (Homo sapiens) (UniProt P20273)
observed.result: 0.1
--
smiles.text: CC(=O)N[C@H]1[C@H]([C@H](O)[C@H](O)CNC(=O)c2ccc(-c3ccccc3)cc2)O[C@@](OCCCSCCNC(=O)c2ccc(-c3ccc(C(=O)NCCSCCCO[C@]4(C(=O)O)C[C@H](O)[C@@H](NC(C)=O)[C@H]([C@H](O)[C@H](O)CNC(=O)c5ccc(-c6ccccc6)cc5)O4)cc3)cc2)(C(=O)O)C[C@@H]1O
target: B-cell receptor CD22 (Homo sapiens) (UniProt P20273)
observed.result: 0.17

Moving on to the next molecule.
## Input Determine its reported fold change (FC): "CC(=O)N[C@H]1[C@H]([C@H](O)[C@H](O)CNC(=O)c2ccc(-c3ccccc3)cc2)O[C@@](OCCCSCCNC(=O)c2cccc(C(=O)NCCSCCCO[C@]3(C(=O)O)C[C@H](O)[C@@H](NC(C)=O)[C@H]([C@H](O)[C@H](O)CNC(=O)c4ccc(-c5ccccc5)cc4)O3)c2)(C(=O)O)C[C@@H]1O"
## Output 0.79

---

Target: B-cell receptor CD22 (Homo sapiens) (UniProt P20273)
Assay: Inhibition of CD22 in human Daudi cells assessed as relative inhibitory potency in presence of biotinylated dimeric 2-(78-biotinoylamino-1,4,7,10,13,16-hexaoxa-octadecyl)-1,4-bis(2-aza-l-oxo-8-(sodium(5-acetamido-3,5,9-trideoxy-9-(4-phenylbenzamido)-D-glycero-a-D-galacto-non-2-ulopyranosyloxyonate))-5-thia-octyl) benzene preincubated for 15 mins followed by probe addition incubated for 20 mins by flow cytometric analysis relative to 1,4-bis-(2-Aza-1-oxo-8-(sodium(5-acetamido-3,5,9-trideoxy-9-(4-phenylbenzamido)-D-glycero-alpha-D-galacto-non-2-ulopyranosyloxyonate))-5-thia-octyl)benzene
Type: cell-based
Conditions: time 35.0 min
Use Yes when the recorded fold change (FC) is no lower than 0.1; use No when it is lower.

Please review the entries below; each comes with its answer.
smiles.text: CC(=O)N[C@H]1[C@H]([C@H](O)[C@H](O)CNC(=O)c2ccc(-c3ccccc3)cc2)O[C@@](OCCCSCCNC(=O)CCCCC(=O)NCCSCCCO[C@]2(C(=O)O)C[C@H](O)[C@@H](NC(C)=O)[C@H]([C@H](O)[C@H](O)CNC(=O)c3ccc(-c4ccccc4)cc3)O2)(C(=O)O)C[C@@H]1O
target: B-cell receptor CD22 (Homo sapiens) (UniProt P20273)
label: No

smiles.text: CC(=O)N[C@H]1[C@H]([C@H](O)[C@H](O)CNC(=O)c2ccc(-c3ccccc3)cc2)O[C@@](OCCCSCCNC(=O)c2cccc(C(=O)NCCSCCCO[C@]3(C(=O)O)C[C@H](O)[C@@H](NC(C)=O)[C@H]([C@H](O)[C@H](O)CNC(=O)c4ccc(-c5ccccc5)cc4)O3)c2)(C(=O)O)C[C@@H]1O
target: B-cell receptor CD22 (Homo sapiens) (UniProt P20273)
label: Yes

## Input Determine whether this compound has fold change (FC) no lower than 0.1: "CC(=O)N[C@H]1[C@H]([C@H](O)[C@H](O)CNC(=O)c2ccc(-c3ccccc3)cc2)O[C@@](OCCCSCCNC(=O)c2ccc(C(=O)NCCSCCCO[C@]3(C(=O)O)C[C@H](NS(=O)(=O)O)[C@@H](NC(C)=O)[C@H]([C@H](O)[C@H](O)CNC(=O)c4ccc(-c5ccccc5)cc4)O3)cc2)(C(=O)O)C[C@@H]1NS(=O)(=O)O"
## Output Yes

## Input Determine whether this compound has fold change (FC) no lower than 0.1: "CC(=O)N[C@H]1[C@H]([C@H](O)[C@H](O)CNC(=O)c2ccc(-c3ccccc3)cc2)O[C@@](OCc2cn(CCNC(=O)c3ccc(C(=O)NCCn4cc(CO[C@]5(C(=O)O)C[C@H](O)[C@@H](NC(C)=O)[C@H]([C@H](O)[C@H](O)CNC(=O)c6ccc(-c7ccccc7)cc6)O5)nn4)cc3)nn2)(C(=O)O)C[C@@H]1O"
## Output No

## Input Determine whether this compound has fold change (FC) no lower than 0.1: "CC(=O)N[C@H]1[C@H]([C@H](O)[C@H](O)CNC(=O)c2ccc(-c3ccccc3)cc2)O[C@@](OCCCSCCNC(=O)c2ccc(C(=O)NCCSCCCO[C@]3(C(=O)O)C[C@H](NS(=O)(=O)O)[C@@H](NC(C)=O)[C@H]([C@H](O)[C@H](O)CNC(=O)c4ccc(-c5ccccc5)cc4)O3)c(OCCOCCOCCOCCOCCOCCN)c2)(C(=O)O)C[C@@H]1NS(=O)(=O)O"
## Output Yes

---

Molecular target: B-cell receptor CD22 (Homo sapiens) (UniProt P20273)
Assay: Inhibition of CD22 in human Daudi cells assessed as relative inhibitory potency in presence of biotinylated dimeric 2-(78-biotinoylamino-1,4,7,10,13,16-hexaoxa-octadecyl)-1,4-bis(2-aza-l-oxo-8-(sodium(5-acetamido-3,5,9-trideoxy-9-(4-phenylbenzamido)-D-glycero-a-D-galacto-non-2-ulopyranosyloxyonate))-5-thia-octyl) benzene preincubated for 15 mins followed by probe addition incubated for 20 mins by flow cytometric analysis relative to 1,4-bis-(2-Aza-1-oxo-8-(sodium(5-acetamido-3,5,9-trideoxy-9-(4-phenylbenzamido)-D-glycero-alpha-D-galacto-non-2-ulopyranosyloxyonate))-5-thia-octyl)benzene
Assay type: cell-based
Conditions: time 35.0 min
Could you mark each record rule met if its fold change (FC) falls strictly under 0.07, and rule not met if it equals or exceeds it?

## Input Decide: fold change (FC) of "CC(=O)N[C@H]1[C@H]([C@H](O)[C@H](O)CNC(=O)c2ccc(-c3ccccc3)cc2)O[C@@](OCCCSCCC(=O)Nc2ccc(NC(=O)CCSCCCO[C@]3(C(=O)O)C[C@H](O)[C@@H](NC(C)=O)[C@H]([C@H](O)[C@H](O)CNC(=O)c4ccc(-c5ccccc5)cc4)O3)cc2)(C(=O)O)C[C@@H]1O" strictly below 0.07?
## Output rule not met

## Input Decide: fold change (FC) of "CC(=O)N[C@H]1[C@H]([C@H](O)[C@H](O)CNC(=O)c2ccc(-c3ccccc3Cl)cc2)O[C@@](OCCCSCCNC(=O)c2ccc(C(=O)NCCSCCCO[C@]3(C(=O)O)C[C@H](O)[C@@H](NC(C)=O)[C@H]([C@H](O)[C@H](O)CNC(=O)c4ccc(-c5ccccc5Cl)cc4)O3)cc2)(C(=O)O)C[C@@H]1O" strictly below 0.07?
## Output rule not met

## Input Decide: fold change (FC) of "CC(=O)N[C@H]1[C@H]([C@H](O)[C@H](O)CNC(=O)c2ccc(-c3ccsc3)cc2)O[C@@](OCCCSCCNC(=O)c2ccc(C(=O)NCCSCCCO[C@]3(C(=O)O)C[C@H](O)[C@@H](NC(C)=O)[C@H]([C@H](O)[C@H](O)CNC(=O)c4ccc(-c5ccsc5)cc4)O3)cc2)(C(=O)O)C[C@@H]1O" strictly below 0.07?
## Output rule not met

## Input Decide: fold change (FC) of "CC(=O)N[C@H]1[C@H]([C@H](O)[C@H](O)CNC(=O)c2ccc(-c3ccccc3)cc2)O[C@@](OCCCSCCNC(=O)c2ccc(C(=O)NCCSCCCO[C@]3(C(=O)O)C[C@H](O)[C@@H](NC(C)=O)[C@H]([C@H](O)[C@H](O)CNC(=O)c4ccc(-c5ccccc5)cc4)O3)c(Br)c2)(C(=O)O)C[C@@H]1O" strictly below 0.07?
## Output rule not met

## Input Decide: fold change (FC) of "CC(=O)N[C@H]1[C@H]([C@H](O)[C@H](O)CNC(=O)c2ccc(-c3ccccc3)cc2)O[C@@](OCCCSCCNC(=O)c2ccc(C(=O)NCCSCCCO[C@]3(C(=O)O)C[C@H](O)[C@@H](NC(C)=O)[C@H]([C@H](O)[C@H](O)CNC(=O)c4ccc(-c5cccs5)cc4)O3)cc2)(C(=O)O)C[C@@H]1O" strictly below 0.07?
## Output rule not met

## Input Decide: fold change (FC) of "CC(=O)N[C@H]1[C@H]([C@H](O)[C@H](O)CNC(=O)c2ccc(-c3ccccc3)cc2)O[C@@](OCCCSCCNC(=O)c2ccc(-c3ccc(C(=O)NCCSCCCO[C@]4(C(=O)O)C[C@H](O)[C@@H](NC(C)=O)[C@H]([C@H](O)[C@H](O)CNC(=O)c5ccc(-c6ccccc6)cc5)O4)cc3)cc2)(C(=O)O)C[C@@H]1O" strictly below 0.07?
## Output rule met

## Input Decide: fold change (FC) of CC(=O)N[C@H]1[C@H]([C@H](O)[C@H](O)CNC(=O)c2ccc(-c3ccccc3)cc2)O[C@@](OCCC[S+]([O-])CCNC(=O)c2ccc(C(=O)NCC[S+]([O-])CCCO[C@]3(C(=O)O)C[C@H](O)[C@@H](NC(C)=O)[C@H]([C@H](O)[C@H](O)CNC(=O)c4ccc(-c5ccccc5)cc4)O3)cc2)(C(=O)O)C[C@@H]1O (stereo partly drawn) strictly below 0.07?
## Output rule met

## Input Decide: fold change (FC) of "CC(=O)N[C@H]1[C@H]([C@H](O)[C@H](O)CNC(=O)c2ccc(-c3ccccc3)cc2)O[C@](C(=O)O)(n2cc(CCCCNC(=O)c3ccc(C(=O)NCCCCc4cn([C@]5(C(=O)O)C[C@H](O)[C@@H](NC(C)=O)[C@H]([C@H](O)[C@H](O)CNC(=O)c6ccc(-c7ccccc7)cc6)O5)nn4)cc3)nn2)C[C@@H]1O" strictly below 0.07?
## Output rule met

## Input Decide: fold change (FC) of "CC(=O)N[C@H]1[C@H]([C@H](O)[C@H](O)CNC(=O)c2ccc(-c3ccccc3)cc2)O[C@@](OCCCSCCNCc2ccc(CNCCSCCCO[C@]3(C(=O)O)C[C@H](O)[C@@H](NC(C)=O)[C@H]([C@H](O)[C@H](O)CNC(=O)c4ccc(-c5ccccc5)cc4)O3)cc2)(C(=O)O)C[C@@H]1O" strictly below 0.07?
## Output rule met
